system_name: LmPTR1 (Leishmania major)
Construct: made in house
Sequence (Q01782 1-288): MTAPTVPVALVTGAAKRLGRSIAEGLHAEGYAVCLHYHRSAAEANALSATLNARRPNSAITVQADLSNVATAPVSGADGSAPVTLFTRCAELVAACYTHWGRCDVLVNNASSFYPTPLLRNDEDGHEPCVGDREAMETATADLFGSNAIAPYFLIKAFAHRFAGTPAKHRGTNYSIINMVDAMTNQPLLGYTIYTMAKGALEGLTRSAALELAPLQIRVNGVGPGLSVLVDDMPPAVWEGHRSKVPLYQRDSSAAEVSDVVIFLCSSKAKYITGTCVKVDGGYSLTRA
assay_overview: LmPTR1 enzyme inhibition assay (spectrophotometric, NADPH oxidation at 340 nm)
Type: biochemical
measurement_conditions: read-out: Ki^app
pKi: −log10 of the molar value.
parameter_measured: pKi

C=C1C[C@@]23CC[C@@H]4[C@](C)(C(=O)O[C@H]5C=C(C)[C@@H](O)C[C@@H]5C(C)C)CCC[C@@]4(C)C2CC[C@@H]1C3 (some centres unmarked) :: 5.73
C=C1C[C@@]23CCC4[C@](C)(C(=O)O)[C@H](OC(=O)/C=C/c5ccccc5)CC[C@@]4(C)[C@]2(O)CC[C@@H]1C3 (some centres unmarked) :: 5.33

[P] C=C1CC23CCC4C(C)(C(=O)O)C(OC(=O)C=Cc5ccc(O)cc5)CCC4(C)C2(O)CCC1C3 (centres unmarked) [301a]
[Q] C=C1CC23CCC4C(C)(CCC(OC(=O)C=Cc5ccc(O)cc5)C4(C)C(=O)O)C2CCC1C3 (centres unmarked) [302a]
[R] C=C1C[C@@]23CCC4[C@](C)(C(=O)O)[C@H](OC(=O)/C=C/c5ccccc5)CC[C@@]4(C)[C@@H]2CC[C@@H]1C3 (some centres unmarked)
Q: Arrange by pKi, high to low. As an answer, provide the labels arranged in the order called for.
A: Q, R, P
(Q: 5.88, R: 5.68, P: 5.29)

====

system_name: LmPTR1 (Leishmania major, UniProt Q01782)
Construct: made in house
assay_overview: LmPTR1 enzyme inhibition assay (spectrophotometric, NADPH oxidation at 340 nm)
Format: biochemical
measurement_conditions: recombinant LmPTR1, DHB 20 µM, NADPH 250 µM, pH 6.0, 30 °C, 0.1–128 µM; read-out: IC50
pIC50: −log10 of the molar value.
parameter_measured: pIC50

# count of solved cases: 3
C=C1C[C@@]23CC[C@@H]4[C@](C)(C(=O)O[C@H]5C=C(C)[C@@H](O)C[C@@H]5C(C)C)CCC[C@@]4(C)C2CC[C@@H]1C3 (some centres unmarked) [compound 135] :: 5.07
C=C1C[C@@]23CCC4[C@](C)(C(=O)O)[C@H](OC(=O)/C=C/c5ccccc5)CC[C@@]4(C)[C@]2(O)CC[C@@H]1C3 (some centres unmarked) [compound 301] :: 4.67
C=C1CC23CCC4C(C)(CCC(OC(=O)C=Cc5ccc(O)cc5)C4(C)C(=O)O)C2CCC1C3 (centres unmarked) [302a] :: 5.21

[1] C=C1C[C@@]23CCC4[C@](C)(C(=O)O)[C@H](OC(=O)/C=C/c5ccccc5)CC[C@@]4(C)[C@@H]2CC[C@@H]1C3 (some centres unmarked) [compound 302]
[2] C=C1CC23CCC4C(C)(C(=O)O)C(OC(=O)C=Cc5ccc(O)cc5)CCC4(C)C2(O)CCC1C3 (centres unmarked) [301a]
Q: Determine, for 1 and 2 , which has the greater value of pIC50. Indicate which entry you chose by stating its label.
A: 1
(1: 5.02, 2: 4.63)

====

system_name: LmPTR1 (Leishmania major)
Construct: made in house
Sequence (Q01782 1-288): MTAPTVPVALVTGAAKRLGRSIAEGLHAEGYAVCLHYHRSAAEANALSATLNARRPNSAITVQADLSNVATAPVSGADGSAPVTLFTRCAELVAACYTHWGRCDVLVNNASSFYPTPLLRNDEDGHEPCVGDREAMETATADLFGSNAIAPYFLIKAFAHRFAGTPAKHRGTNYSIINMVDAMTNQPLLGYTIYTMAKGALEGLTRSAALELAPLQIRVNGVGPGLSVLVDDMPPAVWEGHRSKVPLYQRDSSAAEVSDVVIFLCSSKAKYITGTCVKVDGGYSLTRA
assay_overview: LmPTR1 enzyme inhibition assay (spectrophotometric, NADPH oxidation at 340 nm)
Assay type: biochemical
measurement_conditions: IC50, recombinant LmPTR1, DHB 20 µM, NADPH 250 µM, pH 6.0, 30 °C, 0.1–128 µM
parameter_measured: pIC50
API: returns pIC50 as number; meaning -log10 of concentration in mol/L.

Q: Name the reported pIC50 value associated with the compound CCc1nc(N)nc(N)c1-c1ccc(Cl)cc1 [PMA, pyrimethamine, reference compound]
A: 5.95

====

system_name: LmPTR1 (Leishmania major)
Construct: made in house
Sequence (Q01782 1-288): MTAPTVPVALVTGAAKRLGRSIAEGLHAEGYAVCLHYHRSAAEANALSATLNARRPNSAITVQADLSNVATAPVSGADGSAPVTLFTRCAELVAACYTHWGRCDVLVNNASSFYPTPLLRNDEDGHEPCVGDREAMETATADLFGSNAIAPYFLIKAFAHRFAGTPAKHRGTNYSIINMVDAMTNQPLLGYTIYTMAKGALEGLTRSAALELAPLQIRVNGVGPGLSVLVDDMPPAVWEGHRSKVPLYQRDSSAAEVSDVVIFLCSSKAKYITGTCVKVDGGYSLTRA
assay_overview: LmPTR1 enzyme inhibition assay (spectrophotometric, NADPH oxidation at 340 nm)
Assay type: biochemical
parameter_measured: Ki (nM)
// note: answer is a bare numeric in nM

Q: Name the reported Ki value associated with the compound CCc1nc(N)nc(N)c1-c1ccc(Cl)cc1 [PMA, pyrimethamine, reference compound]
A: 240
